# procedure_text: Fraction unbound in CD1 mouse plasma at 10 ug/ml after 5 hrs by UPLC-MS/MS analysis
endpoint: fraction unbound at 5 h, 10 ug/ml

**Query** Item under review: CC(C)Cc1ccc2ncccc2c1NS(=O)(=O)c1ccc(CCCN2CCN3CCC[C@@H]3C2)cc1 . Reported fraction unbound at 5 h, 10 ug/ml?
**Result** 0.17

**Query** Item under review: CC(C)Cc1ccc2nn(C)cc2c1NS(=O)(=O)c1ccc(CCCCC2CCN(C)CC2)cc1 . Reported fraction unbound at 5 h, 10 ug/ml?
**Result** 0.062

1 = CC(C)Cc1ccc2ncccc2c1NS(=O)(=O)c1ccc(CCCCN2CCCN(C)CC2)cc1
2 = CC(C)Cc1ccc2ncccc2c1NS(=O)(=O)c1ccc(CCCO[C@@H]2C[C@H]3CC[C@@H](C2)N3C)cc1
**Query** Decide: 1 or 2 , by lowest recorded fraction unbound at 5 h, 10 ug/ml. Kindly state the label of the option you pick.
**Result** 1

* * *

pIC50: −log10 of the molar value.
System: Glycylpeptide N-tetradecanoyltransferase 1 (Homo sapiens, UniProt P30419) | Read-out: pIC50
Sequence (P30419 whole entry): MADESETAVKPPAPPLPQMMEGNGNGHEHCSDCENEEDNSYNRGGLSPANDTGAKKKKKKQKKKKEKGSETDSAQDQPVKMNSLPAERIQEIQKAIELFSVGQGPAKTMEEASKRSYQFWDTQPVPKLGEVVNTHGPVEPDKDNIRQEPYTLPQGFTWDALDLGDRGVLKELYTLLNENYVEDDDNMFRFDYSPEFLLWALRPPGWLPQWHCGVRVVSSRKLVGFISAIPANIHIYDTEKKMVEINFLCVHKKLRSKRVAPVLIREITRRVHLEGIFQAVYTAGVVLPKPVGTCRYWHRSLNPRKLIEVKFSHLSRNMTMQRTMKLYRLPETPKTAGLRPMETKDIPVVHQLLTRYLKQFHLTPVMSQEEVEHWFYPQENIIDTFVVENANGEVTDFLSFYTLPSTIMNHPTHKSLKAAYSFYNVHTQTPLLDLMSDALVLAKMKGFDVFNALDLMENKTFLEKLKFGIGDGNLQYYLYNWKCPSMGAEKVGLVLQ

**Query** Item under review: O=S(=O)(Nc1c(CC2CCCCC2)ccc2ncccc12)c1ccc(Br)cc1 . Reported pIC50?
**Result** < 4.00

**Query** Item under review: O=S(=O)(Nc1c(Cc2ccccc2)ccc2ncccc12)c1ccc(Br)cc1 . Reported pIC50?
**Result** < 4.00

**Query** Item under review: Cn1cc2c(NS(=O)(=O)c3ccc(Br)cc3)c(C3CCCC3)ccc2n1 . Reported pIC50?
**Result** < 4.00

**Query** Item under review: Cn1cc2c(NS(=O)(=O)c3ccc(Br)cc3)c(CC3CCCCC3)ccc2n1 . Reported pIC50?
**Result** < 4.00

**Query** Item under review: Cn1cc2c(NS(=O)(=O)c3ccc(Br)cc3)c(C3CCCCC3)ccc2n1 . Reported pIC50?
**Result** < 4.00

* * *

# procedure_text: Intrinsic clearance in CD1 mouse liver microsomes at 1 uM measured up to 30 mins by UPLC-MS/MS method
# Type: ADME, microsome
# test_context: 0.5 h
endpoint: CLH (mL/min/g)

**Query** Item under review: CC(C)Cc1ccc2nn(C)cc2c1N(C(F)F)S(=O)(=O)c1ccc(CCCCC2CCN(C)CC2)cc1 . Reported CLH?
**Result** 2.3

A = CC(C)Cc1ccc2nn(C)cc2c1NS(=O)(=O)c1ccc(CCCC2CCN(C)CC2)cc1
B = CC(C)Cc1ccc2nn(C)cc2c1NS(=O)(=O)c1ccc(CCCOC[C@H]2COCCN2C)cc1
**Query** Between A and B , whose recorded CLH is greater? Kindly state the label of the option you pick.
**Result** B
(B: 20 mL/min/g, A: 1.2 mL/min/g)

* * *

This section presents compounds with their documented selectivity ratio values.
# Tested on: human NMT1 versus Trypanosoma brucei NMT
# procedure_text: Selectivity ratio of IC50 for human NMT1 to IC50 for Trypanosoma brucei NMT
# Assay type: toxicity
# test_context: read-out: Ratio IC50

**Query** Item under review: Cc1ccc2ncccc2c1NS(=O)(=O)c1ccc(Br)cc1 . Reported selectivity ratio?
**Result** > 3

**Query** Item under review: O=S(=O)(Nc1cccc2ncccc12)c1ccc(Br)cc1 . Reported selectivity ratio?
**Result** > 1.1

# input for lookup
**Query** Item under review: O=S(=O)(Nc1c(Cc2ccccc2)ccc2ncccc12)c1ccc(Br)cc1 . Reported selectivity ratio?
**Result** > 16

// data source = ChEMBL document CHEMBL4229565
